Readings of total protein half-life in vivo for the listed sequences
# PROTOCOL_SUMMARY: total protein half-life in vivo (active degradation + dilution); higher = more stable protein
# EXPERIMENTAL_SETUP: E. coli NCM3722 delta-clpP delta-lon delta-hslV; growth: N-lim chemostat; doubling time 6 h
Lab book: enter the figure in h, no units written.

RESIDUE_CODES	EXPERIMENTAL_VALUE
MRYRIFLLFFFALLPTSLVWAAPAQRAFSDWQVTCNNQNFCVARNTGDHNGLVMTLSRSAGAHTDAVLRIERGGLKSPEASEGEIAPRLLLDGEPLALSGDKWRISPWLLVTDDTATITAFLQMIQEGKAITLRDGDQTISLSGLKAALLFIDAQQKRVGSETAWIKKGDEPPLSVPPAPALKEVAVVNPTPTPLSLEERNDLLDYGNWRMNGLRCSLDPLRREVNVTALTDDKALMMISCEAGAYNTIDLAWIVSRKKPLASRPVRLRLPFNNGQETNELELMNATFDEKSRELVTLAKGRGLSDCGIQARWRFDGQRFRLVRYAAEPTCDNWHGPDAWPTLWITR	4.79
MRHIFQRLLPRRLWLAGLPCLALLGCVQNHNKPAIDTPAEEKIPVYQLADYLSTECSDIWALQGKSTETNPLYWLRAMDCADRLMPAQSRQQARQYDDGSWQNTFKQGILLADAKITPYERRQLVARIEALSTEIPAQVRPLYQLWRDGQALQLQLAEERQRYSKLQQSSDSELDTLRQQHHVLQQQLELTTRKLENLTDIERQLSTRKPAGNFSPDTPHESEKPAPSTHEVTPDEP [P0AD44]	6.11
MSNWPYPRIVAHRGGGKLAPENTLASIDVGAKYGHKMIEFDAKLSKDGEIFLLHDDNLERTSNGWGVAGELNWQDLLRVDAGSWYSKMFKGEPLPLLSQVAERCREHGMMANIEIKPTTGTGPLTGKMVALAARELWAGMTPPLLSSFEIDALEAAQQAAPELPRGLLLDEWRDDWRELTARLGCVSIHLNHKLLNKARVMQLKDAGLRILVYTVNKPQRAAELLRWGVDCICTDAIDVIGPNFTAQ	4.77
MKYKHLILSLSLIMLGPLAHAEEIGSVDTVFKMIGPDHKIVVEAFDDPDVKNVTCYVSRAKTGGIKGGLGLAEDTSDAAISCQQVGPIELSDRIKNGKAQGEVVFKKRTSLVFKSLQVVRFYDAKRNALAYLAYSDKVVEGSPKNAISAVPVMPWRQ [P0AE91]	5.76
MKRYTPDFPEMMRLCEMNFSQLRRLLPRNDAPGETVSYQVANAQYRLTIVESTRYTTLVTIEQTAPAISYWSLPSMTVRLYHDAMVAEVCSSQQIFRFKARYDYPNKKLHQRDEKHQINQFLADWLRYCLAHGAMAIPVY [P0ADU7]	6.32

Ask: total protein half-life in vivo lookup needed for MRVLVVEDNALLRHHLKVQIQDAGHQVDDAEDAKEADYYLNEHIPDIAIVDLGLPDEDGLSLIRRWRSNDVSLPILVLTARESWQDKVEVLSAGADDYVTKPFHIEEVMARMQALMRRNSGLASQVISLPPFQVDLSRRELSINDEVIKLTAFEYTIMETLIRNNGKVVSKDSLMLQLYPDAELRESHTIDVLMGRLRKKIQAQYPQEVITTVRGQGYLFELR , thanks.
Reply: 4.69
